measured_target: NDM-1 (Klebsiella pneumoniae, UniProt C7C422)
Sequence (C7C422 29-270, looked up): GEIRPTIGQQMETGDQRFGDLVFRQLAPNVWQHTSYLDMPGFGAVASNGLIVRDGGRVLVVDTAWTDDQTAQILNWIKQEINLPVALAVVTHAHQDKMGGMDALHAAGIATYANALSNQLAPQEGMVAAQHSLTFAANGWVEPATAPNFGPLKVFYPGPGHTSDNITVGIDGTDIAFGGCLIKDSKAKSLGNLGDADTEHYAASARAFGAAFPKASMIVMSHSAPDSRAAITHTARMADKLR
Assay type: binding
condition_description: 5 μM NDM-1, 200 μM inhibitor; native NDM-1 TM = 55.95±0.06 °C
The entries below come with measured ∆Tm values attached.

{"columns": ["compound", "measured_target", "value_units", "∆Tm"],
 "data": [
  ["Cc1ccc(CN(CC(=O)O)CC(=O)O)o1 [Compound 23d]", "NDM-1 (Klebsiella pneumoniae, UniProt C7C422)", "°C", 3.4],
  ["O=C(O)CN(CC(=O)O)Cc1ccco1 [Compound 23b]", "NDM-1 (Klebsiella pneumoniae, UniProt C7C422)", "°C", 1.6],
  ["O=C(O)CN(CC(=O)O)Cc1ccc(Br)s1 [Compound 23g]", "NDM-1 (Klebsiella pneumoniae, UniProt C7C422)", "°C", 3.0],
  ["O=C(O)c1cccc(C(=O)O)n1 [DPA, dipicolinic acid, reference compound]", "NDM-1 (Klebsiella pneumoniae, UniProt C7C422)", "°C", "−14.5"],
  ["CN(CC(=O)O)CC(=O)O", "NDM-1 (Klebsiella pneumoniae, UniProt C7C422)", "°C", 1.9],
  ["O=C(O)CN(CC(=O)O)Cc1cccs1 [Compound 23a]", "NDM-1 (Klebsiella pneumoniae, UniProt C7C422)", "°C", 3.1],
  ["O=C(O)CN(CC(=O)O)Cc1ccoc1 [Compound 21i]", "NDM-1 (Klebsiella pneumoniae, UniProt C7C422)", "°C", 3.4],
  ["O=C(O)CN(CCc1ccco1)CC(=O)O [Compound 23f]", "NDM-1 (Klebsiella pneumoniae, UniProt C7C422)", "°C", 1.5],
  ["O=C(O)CN(CCc1cccs1)CC(=O)O [Compound 23e]", "NDM-1 (Klebsiella pneumoniae, UniProt C7C422)", "°C", 1.7]
]}

All figures here come from paper PMC7434514.
